tested on: Human rhinovirus sp.; test: Antirhinoviral activity against Human Rhinovirus R50; format: functional
measuredEndpoint: MIC (µM)

smilesEntry | targetDesc | measuredResult
Cc1cc(CCCCCOc2c(C)cc(-c3nnn(C)n3)cc2C)on1 | Human rhinovirus sp. | 0.23
Cc1cc(-c2nnn(C)n2)cc(C)c1OCCCCCc1ccccn1 | Human rhinovirus sp. | 0.36
Cc1cc(-c2nnn(C)n2)cc(C)c1OCCCCCc1cccnc1 | Human rhinovirus sp. | 2.28
Cc1cc(-c2nnn(C)n2)cc(C)c1OCCCCCc1ccncc1 | Human rhinovirus sp. | 0.36
